- Measurement Target: MAPK8 (human) (UniProt P45983)
- Sequence (P45983 whole entry, looked up): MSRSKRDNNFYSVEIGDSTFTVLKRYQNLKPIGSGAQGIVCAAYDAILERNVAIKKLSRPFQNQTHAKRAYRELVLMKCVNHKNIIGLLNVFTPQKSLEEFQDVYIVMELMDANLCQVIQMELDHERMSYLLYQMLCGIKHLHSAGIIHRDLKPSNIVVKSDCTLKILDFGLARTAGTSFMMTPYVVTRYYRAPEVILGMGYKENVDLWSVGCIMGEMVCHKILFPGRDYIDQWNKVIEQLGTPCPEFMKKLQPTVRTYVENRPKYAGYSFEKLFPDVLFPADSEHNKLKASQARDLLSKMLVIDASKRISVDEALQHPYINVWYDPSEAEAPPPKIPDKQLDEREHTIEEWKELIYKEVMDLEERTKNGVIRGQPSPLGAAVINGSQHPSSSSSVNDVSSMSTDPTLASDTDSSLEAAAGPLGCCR
- Assay: radiometric filter-binding kinase assay, Kinase HotSpot
- Recorded Conditions: compound 0.5 µM; ATP 10 µM
The compounds listed here are annotated with their residual activity.
Measured Quantity: residual activity (%)

INSERT INTO results (compound, value_observed) VALUES
  ('N#CC(C#N)=C(N)/C(C#N)=C/c1ccc(O)cc1', 100),
  ('Cc1ccc(NC2=CC(=O)c3sc(C)nc3C2=O)cc1', 100),
  ('CNc1cc2c(Nc3cccc(Br)c3)ncnc2cn1', 96.4),
  ('Nc1ncnc2[nH]nc(Nc3ccc(F)cc3)c12', 111),
  ('COc1ccc2c(c[n+](C)c3c4cc5c(cc4ccc23)OCO5)c1OC', 89.8),
  ('Nc1cccc(-c2cc3c(Oc4cccc(O)c4)ncnc3[nH]2)c1', 94.4),
  ('Nc1ccc2ncnc(NCCc3ccc(Oc4ccccc4)cc3)c2c1', 104),
  ('O=C1Nc2ccc(Cl)cc2/C1=C/c1cc(Cl)c(O)c(Cl)c1', 82.8),
  ('COc1ccc(COc2ccc(Cc3cnc(N)nc3N)cc2OC)cc1', 91.9),
  ('CNC(=O)c1cc(Oc2ccc(NC(=O)Nc3ccc(Cl)c(C(F)(F)F)c3)cc2)ccn1', 92.8),
  ('O=S(=O)(c1cccc2cnccc12)N1CCCNCC1', 89.7),
  ('CCCC(=O)Oc1ccc2[nH]c(C(=O)c3cc4ccccc4[nH]3)cc2c1', 84),
  ('O=c1cc(N2CCOCC2)oc2c1ccc1ccccc12', 97.2),
  ('CCC(=O)Nc1ccc2ncnc(Nc3cccc(Br)c3)c2c1', 73.7),
  ('COc1cc2ncnc(Nc3cccc(Cl)c3)c2cc1OC', 93.8),
  ('CC(C)N(CCC(=O)c1ccc2ccccc2c1)Cc1ccccc1', 88),
  ('O=C1NC(=O)C(c2cn(CCCn3ccnc3)c3ccccc23)=C1Nc1ccccc1', 99.6),
  ('O=C(Nc1cccc(Nc2nccc(Nc3cccc(C(F)(F)F)c3)n2)c1)C1CC1', 85.7),
  ('CO[C@H]1CC2CC[C@@H](C)[C@@](O)(O2)C(=O)C(=O)N2CCCC[C@H]2C(=O)OC([C@H](C)C[C@@H]2CC[C@@H](O)[C@H](OC)C2)CC(=O)[C@H](C)/C=C(\C)[C@@H](O)[C@@H](OC)C(=O)[C@H](C)C[C@H](C)/C=C/C=C/C=C/1C (stereo partly specified)', 100),
  ('Cc1ccc(S(=O)(=O)/C=C/C#N)cc1', 74.7),
  ('CCN(CC)C(=O)c1ccc(Nc2nc(OCC3CCCCC3)c3nc[nH]c3n2)cc1', 51.1);

----------
- Measurement Target: ULK3 (human) (UniProt Q6PHR2)
- Sequence (Q6PHR2 whole entry, looked up): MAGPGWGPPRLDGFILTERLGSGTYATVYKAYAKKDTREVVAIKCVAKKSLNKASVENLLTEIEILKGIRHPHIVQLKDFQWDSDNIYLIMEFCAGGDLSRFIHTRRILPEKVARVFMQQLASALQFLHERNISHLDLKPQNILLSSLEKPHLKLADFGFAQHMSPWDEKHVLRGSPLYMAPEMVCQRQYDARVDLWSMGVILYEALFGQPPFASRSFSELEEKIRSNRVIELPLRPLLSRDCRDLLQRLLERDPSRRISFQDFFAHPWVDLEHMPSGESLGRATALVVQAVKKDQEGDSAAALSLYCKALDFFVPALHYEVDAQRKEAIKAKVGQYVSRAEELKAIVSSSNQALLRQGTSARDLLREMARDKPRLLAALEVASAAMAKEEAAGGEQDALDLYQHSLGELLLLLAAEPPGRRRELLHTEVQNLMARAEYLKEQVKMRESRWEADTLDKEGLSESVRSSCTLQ
- Assay: radiometric filter-binding kinase assay, Kinase HotSpot
- Recorded Conditions: compound 0.5 µM; ATP 10 µM
Measured Quantity: residual activity (%)

INSERT INTO results (molecule_smiles, measurement_target, value_observed) VALUES
  ('CNc1cc2c(Nc3cccc(Br)c3)ncnc2cn1', 'ULK3 (human) (UniProt Q6PHR2)', 95.8),
  ('CCOC(=O)c1c(C)[nH]c(/C=C2\C(=O)Nc3ccccc32)c1C', 'ULK3 (human) (UniProt Q6PHR2)', 76.7),
  ('Cc1ccc(Nc2nccc(N(C)c3ccc4c(C)n(C)nc4c3)n2)cc1S(N)(=O)=O', 'ULK3 (human) (UniProt Q6PHR2)', 102);
